# assay comment: viability loss with induced miR-34 in A549 – imaging, A549 dox-inducible miR-34, nuclei and caspase counts, primary screen (AID 1347080)
# measurement setup: A549 miR-34 inducible, Hoechst nuclei count, 48 h; measured here: total cells with miR-34 induction; stronger effect = lower value
Hi! Could you tag entries with cell count below 6000 as yes, and those at or above as no? Much appreciated.

[
  {
    "line notation": "COC(=O)C1=C(C)NC(C)=C(C(=O)OCCCN2CCC(c3ccccc3)(c3ccccc3)CC2)[C@H]1c1cccc([N+](=O)[O-])c1",
    "class": "yes"
  }
]

Input `CC(C)NCCN(C(C)C)S(=O)(=O)c1ccc(Cl)cc1Cl` ; condition: cell count strictly below 6000. Does it hold? no

Same read-out for `CCCCCCCCCCCCCCCCCCCCCCCCC(=O)OC` ? no

====

# assay comment: viability loss in pontine glioma line – cell-based, SU-DIPG-XIII, MIPE5.0, CellTiter-Glo, qHTS, dose response (AID 1347064);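 for AC50: cells exposed to compound for 48 hours before the viability read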
# measurement setup: CellTiter-Glo ATP luminescence
Records with an inconclusive call do not appear. Active and inactive are the calls of the source. No cut-off is given here; in the data, nearly all actives have AC50 up to about 23 µM.
Choose one outcome from this list and give only that: active, inactive

Check out these entries, answers already filled in.
[
  {
    "compound": "NS(=O)(=O)c1ccc(S(=O)(=O)Nc2cccc3c(Cl)c[nH]c23)cc1",
    "class": "active"
  },
  {
    "compound": "CCn1c(=O)c2c(nc(/C=C/c3ccc(OC)c(OC)c3)n2C)n(CC)c1=O",
    "class": "inactive"
  },
  {
    "compound": "COc1cccc(-c2ccc(NC(=O)C3=C(C(=O)O)CCC3)c(F)c2)c1",
    "class": "inactive"
  },
  {
    "compound": "Cc1nc(C(=O)NCC(=O)O)c(O)c2ccc(Oc3ccccc3)cc12",
    "class": "inactive"
  },
  {
    "compound": "Cc1ccc(O)c(C(CCN(C(C)C)C(C)C)c2ccccc2)c1 (stereo not drawn)",
    "class": "inactive"
  },
  {
    "compound": "C[C@@]1(c2ncncc2F)NC(=O)c2cc(-c3cn[nH]c3)ccc21",
    "class": "inactive"
  },
  {
    "compound": "CS(=O)(=O)N(Cc1ccco1)CC(O)Cn1c2ccccc2c2ccccc21 (stereo not drawn)",
    "class": "inactive"
  },
  {
    "compound": "O=C(c1ccc(F)c(F)c1Nc1ccc(I)cc1F)N1CC(O)([C@@H]2CCCCN2)C1",
    "class": "active"
  }
]

So what was the verdict on `C=CCNc1c(O)cc2c(O)c1C[C@@H](C)C[C@H](OC)[C@H](O)[C@@H](C)/C=C(/C)[C@H](OC(N)=O)[C@@H](OC)/C=C\C=C(\C)C(=O)N2` in this test? active

Try `CCn1c(-c2nonc2N)nc2c(C#CC(C)(C)O)ncc(OC[C@H]3CCCNC3)c21` next. active

Then what about the compound `COc1ccc(CCN2CCN(CCCc3ccccc3)CC2)cc1OC` ? inactive

Next record, please: `Fc1ccc(CNc2ncnc3ccc(F)cc23)cc1` inactive

====

# assay comment: viability loss in pontine glioma line – cell-based, JHH-DIPG-1, MIPE4.0, CellTiter-Glo, qHTS, dose response (AID 1347062);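 for AC50: cells exposed to compound for two days before readout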
# measurement setup: JHH-DIPG-1 viability, CellTiter-Glo ATP luminescence
Results filed as inconclusive are left out. Calls of active or inactive are those of the source. No cut-off is given here; in the data, nearly all actives have AC50 up to about 27 µM.
Could you please pick one outcome from this set? y (active), n (inactive)

[
  {
    "line notation": "O=C1NC(=O)/C(=C/c2ccc3c(c2)OC(F)(F)O3)S1",
    "class": "n"
  }
]

Assay result, entry `COc1cc2ncnc(Nc3ccc(F)c(Cl)c3)c2cc1NC(=O)/C=C/CN1CCCCC1` — outcome? y

Same for `O=C(O)[C@H]1O[C@H](Oc2cc3oc(-c4ccccc4)cc(=O)c3c(O)c2O)[C@H](O)[C@@H](O)[C@@H]1O` n

Quick one: `C=CC(=O)Nc1cccc(Oc2nc(Nc3ccc(N4CCN(C)CC4)cc3)ncc2Cl)c1` y

Okay, and `CO[C@H]1/C=C/O[C@@]2(C)Oc3c(C)c(O)c4c(O)c(c(/C=N\N5CCN(C6CCCC6)CC5)c(O)c4c3C2=O)NC(=O)/C(C)=C\C=C\[C@H](C)[C@H](O)[C@@H](C)[C@@H](O)[C@@H](C)[C@H](OC(C)=O)[C@@H]1C` ? y

Also, `Cn1cc(-c2ccncc2)c(-c2ccc(OCc3ccc4ccccc4n3)cc2)n1` please. n

Quick one: `COc1ncc(-c2ccc3nccc(-c4ccnnc4)c3c2)cc1NS(=O)(=O)c1ccc(F)cc1F` y

Next entry: `COc1ccc(-c2oc3c(CC=C(C)C)c(O)cc(O)c3c(=O)c2O)cc1` n
